The measured values listed here are drawn from ChEMBL document CHEMBL3112547.

# Assay Target: Soluble guanylate cyclase alpha1/beta1 complex (Homo sapiens) (UniProt Q02153+Q02108)
# Run Description: Binding affinity to full-length human recombinant sGC subunit alpha-1/beta-1 at 100 uM after 30 seconds by SPR analysis
# Format: protein-complex assay
Activity calls are given as the source filed them. No cut-off for these calls is given here.
Outcome field: choose from active, inactive

Returns: the outcome recorded for `Cc1ccccc1Cn1nc(-c2nc(CN)no2)c2ccccc21` in this assay.
active

---
# lookup: test call for `Cc1oncc1Cn1nc(-c2nc(CN)no2)c2ccccc21`
active

Recorded test call requested for `COc1ccc(Cn2nc(-c3nc(CN)no3)c3ccccc32)cc1`
inactive

Outcome logged for `CC(C)(C)OC(=O)NCc1noc(-c2nn(Cc3ccc4c(c3)OCO4)c3ccccc23)n1` in this assay:
active

For `Cc1ccc(Cn2nc(-c3nc(CN)no3)c3ccccc32)cc1` , what call appears in the results of this test?
active

Per the records of this test, what outcome belongs to `O=C(O)CCCCN(CCc1ccccc1OCc1ccc(CCc2ccccc2)cc1)Cc1ccc(C(=O)O)cc1` ?
active
